Tested on: cultured cells of Taxus baccata LINN
Assay: Growth rate and taxane yield, 21-day shake culture of Taxus baccata cells with heavy metal compound, amine, antiethylene agent or Ethrel added
Assay type: cell-based
Conditions: 10^−4 M added at start, 21 days
fulfilled means recorded yield of cephalomannine is 5 mg/L or above; not fulfilled means it is below 5 mg/L.

Observe how each entry below is paired with its result.
NCCCCNCCCN
fulfilled
[Cl][Co][Cl] [cobalt chloride]
not fulfilled
NCCCNCCCCNCCCN
not fulfilled

Now consider a different compound.
Hi team, for NCCCCN , is the recorded yield of cephalomannine at or above 5 mg/L? fulfilled

* * *

Can you tell me yield of taxol for the items I'm about to list?
System: cultured cells of Taxus baccata LINN
Experiment: Growth rate and taxane yield, 21-day shake culture of Taxus baccata cells with heavy metal compound, amine, antiethylene agent or Ethrel added
Assay type: cell-based
Settings: 10^−5 M added on 14th day, 7 more days
One number for each entry, in mg/L.

Record excerpt, results attached:
CCCOC(=O)c1cc(O)c(O)c(O)c1 [propyl gallate]
8.24
NCCCCNCCCN
10.20
Cl.NOCC(=O)O [aminooxyacetic acid, aminoxyacetic acid hydrochloride]
1.35

In the following, a different compound is considered.
yield of taxol measured on [Cl][Co][Cl] [cobalt chloride] = 7.10

* * *

System: cultured cells of Taxus baccata LINN
Experiment: Growth rate and taxane yield, 21-day shake culture of Taxus baccata cells with heavy metal compound, amine, antiethylene agent or Ethrel added
Type: cell-based
Conditions: 10^−8 M added at start, 21 days
Can you tell me total yield of taxane for the items I'm about to list?
One number for each entry, in mg/L.

Record excerpt, results attached:
NCCCNCCCCNCCCN
3.42
NCCCCN
2.94
NCCCCNCCCN
4.39
O=S([O-])([O-])=S.[Ag+].[Ag+] [silver thiosulfate, [Ag(S2O3)2]^3−]
2.02

In the following, a different compound is considered.
total yield of taxane measured on [Cl][Co][Cl] [cobalt chloride] = 1.05

* * *

Can you tell me yield of baccatin III for the items I'm about to list?
System: cultured cells of Taxus baccata LINN
Assay: Growth rate and taxane yield, 21-day shake culture of Taxus baccata cells with heavy metal compound, amine, antiethylene agent or Ethrel added
Type: cell-based
Conditions: 10^−8 M added at start, 21 days

Record excerpt, results attached:
O=S([O-])([O-])=S.[Ag+].[Ag+] [silver thiosulfate, [Ag(S2O3)2]^3−]
0.29 mg/L
NCCCNCCCCNCCCN [spermin]
0.62 mg/L
NCCCCNCCCN [spermidine]
0.66 mg/L
NCCCCN [putrescine]
0.40 mg/L

yield of baccatin III measured on [Cl][Co][Cl] [cobalt chloride] = 0.15 mg/L

* * *

Can you tell me yield of taxol for the items I'm about to list?
System: cultured cells of Taxus baccata LINN
Experiment: Growth rate and taxane yield, 21-day shake culture of Taxus baccata cells with heavy metal compound, amine, antiethylene agent or Ethrel added
Format: cell-based
Settings: 10^−3 M added at start, 21 days
Numbers only, in mg/L.

Record excerpt, results attached:
NCCCCN
3.07
NCCCCNCCCN
10.09
O=S([O-])([O-])=S.[Ag+].[Ag+] [silver thiosulfate, [Ag(S2O3)2]^3−]
25.13
NCCCNCCCCNCCCN
4.78
[Cl][Co][Cl] [cobalt chloride]
4.38

In the following, a different molecule is considered.
yield of taxol measured on O=[N+]([O-])[O-].[Ag+] [silver nitrate] = 12.66
